Measured Target: mTOR (human recombinant aa mTOR 1360-2549) (Homo sapiens (Human), UniProt P42345)
Sequence (P42345 1360-2549): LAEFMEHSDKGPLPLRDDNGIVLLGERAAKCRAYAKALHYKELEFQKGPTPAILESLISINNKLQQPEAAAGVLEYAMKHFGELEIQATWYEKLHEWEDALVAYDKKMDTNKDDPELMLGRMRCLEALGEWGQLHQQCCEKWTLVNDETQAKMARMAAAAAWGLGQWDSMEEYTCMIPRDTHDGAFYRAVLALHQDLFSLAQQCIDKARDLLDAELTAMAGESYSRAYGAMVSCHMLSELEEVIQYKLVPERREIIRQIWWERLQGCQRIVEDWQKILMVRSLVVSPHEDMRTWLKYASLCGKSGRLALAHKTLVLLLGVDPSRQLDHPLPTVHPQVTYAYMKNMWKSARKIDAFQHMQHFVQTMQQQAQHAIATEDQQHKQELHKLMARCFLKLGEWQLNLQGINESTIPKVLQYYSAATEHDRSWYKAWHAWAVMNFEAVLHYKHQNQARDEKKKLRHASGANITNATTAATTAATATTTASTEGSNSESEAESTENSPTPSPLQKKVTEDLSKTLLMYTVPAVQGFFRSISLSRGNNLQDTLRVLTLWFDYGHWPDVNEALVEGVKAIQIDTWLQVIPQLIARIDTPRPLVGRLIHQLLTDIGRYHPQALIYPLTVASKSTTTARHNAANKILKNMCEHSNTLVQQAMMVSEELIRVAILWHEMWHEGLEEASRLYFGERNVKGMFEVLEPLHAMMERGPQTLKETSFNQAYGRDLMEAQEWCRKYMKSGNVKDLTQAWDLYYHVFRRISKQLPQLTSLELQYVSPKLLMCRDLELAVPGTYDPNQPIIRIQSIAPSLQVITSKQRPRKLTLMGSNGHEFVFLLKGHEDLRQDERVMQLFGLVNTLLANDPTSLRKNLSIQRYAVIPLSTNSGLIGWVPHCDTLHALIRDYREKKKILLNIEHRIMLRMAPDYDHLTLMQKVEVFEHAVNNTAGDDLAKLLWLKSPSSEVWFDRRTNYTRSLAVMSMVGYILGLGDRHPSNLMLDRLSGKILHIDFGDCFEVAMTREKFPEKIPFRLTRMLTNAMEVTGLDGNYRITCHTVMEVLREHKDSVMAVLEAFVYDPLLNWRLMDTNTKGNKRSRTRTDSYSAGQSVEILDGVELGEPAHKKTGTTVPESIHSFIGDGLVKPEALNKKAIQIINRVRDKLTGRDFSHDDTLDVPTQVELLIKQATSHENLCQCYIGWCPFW
Assay Procedure: mTOR enzymatic test by TR-FRET (phosphorylation of GFP-4EBP1)
Method: Model 1: mTOR Enzymatic Test by TR-FRET (Time-resolved Fluorescence Resonance Energy Transfer). The test detects the phosphorylation of the substrate GFP-4EBP1 using a terbium-labelled antibody that is specific for the phospho-Thr46 epitope. Binding of the Tb-antibody to the phosphorylated GFP peptide allows the transfer of energy from Tb, excited at 340 nm, to GFP with an increase in the fluorescence emission of the GFP at 520 nm. […] The mixture is incubated for 30 minutes at room temperature. […]
pIC50: −log10 of the molar value.
Is pIC50 at least 7? Then y. If not, n.

>  <Molecule>
C[C@@H](CO)OC(=O)Nc1ccc(-c2nc(N3CC4CCC(C3)O4)nc3c2C(=O)N(C)CC(C)(C)O3)cc1 [Example 238]

>  <Group Label>
n

$$$$
>  <Molecule>
CCN1CC(C)(C)Oc2nc(N3CC4CCC(C3)O4)nc(-c3ccc(NC(=O)Nc4ccc(N5CCC(O)C5)cn4)cc3)c2C1=O (stereo not shown) [Example 72]

>  <Group Label>
y

$$$$
>  <Molecule>
CCN1CC(C)(C)Oc2nc(N3CC4CCC(C3)O4)nc(-c3ccc(NC(=O)NCC4CCS(=O)(=O)C4)c(F)c3)c2C1=O (stereo not shown) [Example 129]

>  <Group Label>
n

$$$$
>  <Molecule>
CCN1CC(C)(C)Oc2nc(N3CC4CCC(C3)O4)nc(-c3ccc(NC(=O)Nc4cncc(OC)n4)cc3)c2C1=O [Example 28]

>  <Group Label>
y

$$$$

Alright, here's another molecule for you.
**Query** Check the entry CCN1CC(C)(C)Oc2nc(N3CC4CCC(C3)O4)nc(-c3ccc(NC(=O)Nc4ccc(OC5CCOC5)cc4)c(F)c3)c2C1=O (stereo not shown) [Example 77] : does pIC50 equal or exceed 7?
**Result** y

---

Measured Target: PI3Kα (p110α/p85α) (Homo sapiens (Human))
Sequence (P42336 whole entry): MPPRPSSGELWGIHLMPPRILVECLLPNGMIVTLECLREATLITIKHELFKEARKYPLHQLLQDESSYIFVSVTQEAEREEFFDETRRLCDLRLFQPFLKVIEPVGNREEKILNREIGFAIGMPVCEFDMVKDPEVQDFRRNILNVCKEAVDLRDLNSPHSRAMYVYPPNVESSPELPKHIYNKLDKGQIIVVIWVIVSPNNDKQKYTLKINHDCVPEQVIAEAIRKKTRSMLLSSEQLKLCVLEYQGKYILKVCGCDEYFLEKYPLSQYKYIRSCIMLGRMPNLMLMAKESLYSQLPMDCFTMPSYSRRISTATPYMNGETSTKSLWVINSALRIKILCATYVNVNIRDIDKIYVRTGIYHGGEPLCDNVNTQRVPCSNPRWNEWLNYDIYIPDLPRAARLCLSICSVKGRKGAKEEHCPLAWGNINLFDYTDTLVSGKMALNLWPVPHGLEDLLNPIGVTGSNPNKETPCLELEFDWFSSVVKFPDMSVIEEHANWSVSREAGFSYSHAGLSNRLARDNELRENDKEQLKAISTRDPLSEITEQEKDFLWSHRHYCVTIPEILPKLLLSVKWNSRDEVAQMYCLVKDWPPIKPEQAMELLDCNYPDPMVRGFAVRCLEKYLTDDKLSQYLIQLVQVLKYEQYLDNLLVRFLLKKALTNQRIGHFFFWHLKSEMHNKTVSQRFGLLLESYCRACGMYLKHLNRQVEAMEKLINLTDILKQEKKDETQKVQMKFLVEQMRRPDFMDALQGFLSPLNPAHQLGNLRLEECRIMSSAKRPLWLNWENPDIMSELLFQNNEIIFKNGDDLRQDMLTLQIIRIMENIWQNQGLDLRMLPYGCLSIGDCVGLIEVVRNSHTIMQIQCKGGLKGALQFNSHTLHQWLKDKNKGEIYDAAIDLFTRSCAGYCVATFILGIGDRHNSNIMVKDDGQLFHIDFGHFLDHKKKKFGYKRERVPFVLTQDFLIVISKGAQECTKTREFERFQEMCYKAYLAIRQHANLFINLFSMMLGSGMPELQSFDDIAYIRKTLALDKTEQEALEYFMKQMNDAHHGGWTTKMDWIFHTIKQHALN
Sequence (P27986 whole entry partner): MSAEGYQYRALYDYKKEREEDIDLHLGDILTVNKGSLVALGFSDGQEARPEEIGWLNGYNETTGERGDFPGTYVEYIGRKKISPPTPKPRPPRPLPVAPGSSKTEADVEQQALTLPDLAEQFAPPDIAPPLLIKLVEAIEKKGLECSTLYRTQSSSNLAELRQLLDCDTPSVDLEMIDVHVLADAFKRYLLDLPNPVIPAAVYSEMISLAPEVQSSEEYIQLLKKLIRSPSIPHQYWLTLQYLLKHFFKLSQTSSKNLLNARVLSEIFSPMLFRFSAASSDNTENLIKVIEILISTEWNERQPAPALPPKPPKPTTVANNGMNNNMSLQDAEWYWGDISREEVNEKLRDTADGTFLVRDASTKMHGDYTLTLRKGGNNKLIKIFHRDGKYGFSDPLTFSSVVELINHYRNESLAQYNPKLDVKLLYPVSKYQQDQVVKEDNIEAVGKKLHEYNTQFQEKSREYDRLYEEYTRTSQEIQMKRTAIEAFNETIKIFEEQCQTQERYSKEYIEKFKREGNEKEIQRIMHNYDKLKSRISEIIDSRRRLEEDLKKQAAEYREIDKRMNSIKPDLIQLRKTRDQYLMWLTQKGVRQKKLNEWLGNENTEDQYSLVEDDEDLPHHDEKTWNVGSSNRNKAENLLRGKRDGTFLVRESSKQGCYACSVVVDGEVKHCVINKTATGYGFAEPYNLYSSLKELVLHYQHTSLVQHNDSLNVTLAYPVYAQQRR
Assay Procedure: PI3Kα enzymatic test by measuring the consumption of ATP
Type: biochemical
Listed here are compounds together with their documented PI3Ka IC50.
Field format: number, assumed µM, no unit text.

>  <Smiles String>
CCN1CC(C)(C)Oc2nc(N3CCOC[C@@H]3C)nc(-c3ccc(NC(=O)Nc4cc(OC)ccn4)cc3)c2C1=O

>  <Observed Value>
12.978

$$$$

Here is the next item to consider.
**Query** Enter recorded PI3Ka IC50 with PI3Kα (p110α/p85α) (Homo sapiens (Human)) for CCN1CC(C)(C)Oc2nc(N3CCOC[C@@H]3C)nc(-c3ccc(NC(=O)Nc4ccc(C)cn4)c(F)c3)c2C1=O here.
**Result** 3.8

---

Listed here are molecules together with their documented IC50.
Tested on: U87MG tumour cells
Assay Procedure: Test of in vitro proliferation of U87MG tumour cells
Type: cell-based
Assay Setup: Homo sapiens, U-87 MG, 72 h, U87MG cells, 72 hours; read-out: U87 Cell Proliferation IC50
Field format: number, assumed µM, no unit text.

**Query** Please report IC50 for the following molecule: CNC(=O)Nc1ccc(-c2nc(N3C4CCC3COC4)nc3c2C(=O)N(C)CC(C)(C)O3)cc1 [Example 43]
**Result** 0.082

**Query** Please report IC50 for the following molecule: CCN1CC(C)(C)Oc2nc(N3CC4CCC(C3)O4)nc(-c3ccc(NC(=O)Nc4cncc(OC)n4)c(F)c3)c2C1=O [Example 139]
**Result** 3.01

**Query** Please report IC50 for the following molecule: CCN1CC(C)(C)Oc2nc(N3CCOC[C@@H]3C)nc(-c3ccc(NC(=O)NC4CC4)c(F)c3)c2C1=O [Example 150]
**Result** 0.201

**Query** Please report IC50 for the following molecule: CCN1CC(C)(C)Oc2nc(N3CC4CCC(C3)O4)nc(-c3ccc(NC(=O)Nc4ccc(OCCOC)cn4)cc3)c2C1=O [Example 40]
**Result** 0.274

**Query** Please report IC50 for the following molecule: CCN1CC(C)(C)Oc2nc(N3CC4CCC(C3)O4)nc(-c3ccc(NC(=O)Nc4ccnc(OC)n4)c(F)c3)c2C1=O [Example 144]
**Result** 2.57

**Query** Please report IC50 for the following molecule: CCN1CC(C)(C)Oc2nc(N3CC4CCC(C3)O4)nc(-c3ccc(NC(=O)Nc4ccc(N5CC6CCC(C5)O6)cn4)cc3)c2C1=O [Example 251]
**Result** 0.34

**Query** Please report IC50 for the following molecule: CCN1CC(C)(C)Oc2nc(N3CCOC[C@@H]3C)nc(-c3ccc(NC(=O)NC)cc3F)c2C1=O [Example 11]
**Result** 0.271
